Ref: patent US20070078168A1

# ASSAY DETAILS: Plasma protein binding by equilibrium dialysis
# Assay type: in vitro ADME
# CONDITION SUMMARY: rat, 37° C., plasma vs isotonic phosphate buffer pH 7.4, read-out: % free in plasma
PARAMETER MEASURED: fraction unbound at 18 hours, 20 μM

STRUCTURE NOTATION	RESULT
COC[C@H](C)Oc1cc(O[C@@H](C)Cc2ccccc2OC)cc(C(=O)Nc2ccc(C(=O)O)cn2)c1	0.0042
